src = paper PMC7819943

Assign binding signal to each entry below.
- target_under_test: OsWOX13 (Oryza sativa, UniProt Q5QMM3 1-267)
- Sequence: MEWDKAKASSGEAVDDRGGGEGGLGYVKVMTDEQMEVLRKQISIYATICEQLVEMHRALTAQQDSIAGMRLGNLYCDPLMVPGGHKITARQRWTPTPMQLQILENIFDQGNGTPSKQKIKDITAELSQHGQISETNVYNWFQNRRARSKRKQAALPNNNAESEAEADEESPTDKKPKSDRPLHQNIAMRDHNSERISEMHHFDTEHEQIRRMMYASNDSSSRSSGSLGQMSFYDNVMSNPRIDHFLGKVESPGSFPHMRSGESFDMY
- test: protein-binding microarray (RPBM); PBS, 2% BSA, 51.3 ng/ul salmon testes DNA, 50 uM zinc acetate, 200 nM TF, 25 C, 1 h; high values mean tight binding
- experimental_conditions: protein: recombinant; tags: N-terminal polyhistidine and DsRed monomer fusion (pET32a); label: CyDye5-dUTP incorporated in the synthesized complementary strand; 3' TTTTT single-stranded linker to array surface; dsDNA, one strand shown
The full ranking holds about 35,000 sequences; the median of “fluorescence intensity (a.u.)” is about 10,000, and the highest 2% start at about 52,000. This is one part of a sample in which the highest values are shown more often than they occur.

Example cases with answers are listed next.
[ask] Which measured binding signal value corresponds to `GGCAAATTGTCAAGGTTAACCGTAAATCTACAGTGCCAATCGGAGTCACCTAGTGCAG` ?
[reply] 15500 fluorescence intensity (a.u.)

[ask] Quick check: binding signal of `GGCAGTGACTAATTAACCTCACGGATGACAGGCGGCGAAACGGAGTCACCTAGTGCAG` ?
[reply] 10300 fluorescence intensity (a.u.)

[ask] If you can, please state the reported binding signal value of `ATCACCTAATCAATTGAATCCATCAATTCAAGTAGATTCACGGAGTCACCTAGTGCAG` .
[reply] 9390 fluorescence intensity (a.u.)

[ask] Requested read-out: binding signal. Entry: `AAATATATTCAATTATTGATTTGATGAAACTAATTTCGTACGGAGTCACCTAGTGCAG`
[reply] 23500 fluorescence intensity (a.u.)

[ask] Fill in: binding signal of `ACTCAATCTTATTAACTTAAATTGAACTTGAACAAGAGAACGGAGTCACCTAGTGCAG` is ___
[reply] 22000 fluorescence intensity (a.u.)

Working through the 8 sequences below one at a time, give binding signal for each.
1. CAAATGTAATTTCGCACTATTCTTATCTAATGTTTGACATCGGAGTCACCTAGTGCAG
2. TCTGATAGCTTGTGAGGGTTTCATTCATCCTCTGCTAGTGCGGAGTCACCTAGTGCAG
3. TTATGGCTAATCATGAACTAATTAGACTCAAAAGATTCGTCGGAGTCACCTAGTGCAG
4. TGTCACAGGTAAATCACTGCAATTAGCGAGTCATGGCTCACGGAGTCACCTAGTGCAG
5. TACGGCTAATTATGGACTAATTAGACTCAAAAGATTCATGCGGAGTCACCTAGTGCAG
6. GAAATTAAACTAATATTTCGGCCCATCAAGGGCTCGCTTGCGGAGTCACCTAGTGCAG
7. GCTAATCATAGACTAATTAGGCTTAAAAGATTTGTCTCGCCGGAGTCACCTAGTGCAG
8. ACTAATTAGACTTAAAAGATTTGTCTCATGATTTACTCCCCGGAGTCACCTAGTGCAG

[reply]
1. 4370 fluorescence intensity (a.u.)
2. 6630 fluorescence intensity (a.u.)
3. 23700 fluorescence intensity (a.u.)
4. 8530 fluorescence intensity (a.u.)
5. 53800 fluorescence intensity (a.u.)
6. 8580 fluorescence intensity (a.u.)
7. 37200 fluorescence intensity (a.u.)
8. 56300 fluorescence intensity (a.u.)

Record binding signal per entry; entries follow.
1. TTATGAAAATATATTTAATTATTGATTTGATGAAACTAATCGGAGTCACCTAGTGCAG
2. AGCGCAACTAATTAAACTAGGCTTATCAGGCGACAGCGGCCGGAGTCACCTAGTGCAG

[reply]
5790 fluorescence intensity (a.u.)
4920 fluorescence intensity (a.u.)

Batch lookup, binding signal per entry.
1. TATATATATATATATATATAGACACACACATCAACAACAACGGAGTCACCTAGTGCAG
2. TACTAATCATAGACTAATTAGGCTCAAAAGATTCGTCTCACGGAGTCACCTAGTGCAG
3. GATTAATTAGACTTAATAAATTTGTCTCACGGTTTACGGACGGAGTCACCTAGTGCAG
4. GCACACATGATCAATCAATTAATAGATTAGGTAGGTACGGCGGAGTCACCTAGTGCAG

[reply]
1: 16000 fluorescence intensity (a.u.); 2: 31300 fluorescence intensity (a.u.); 3: 40500 fluorescence intensity (a.u.); 4: 51100 fluorescence intensity (a.u.)

* * *

- target_under_test: OsWOX13 (Oryza sativa, UniProt Q5QMM3 1-267)
- Sequence: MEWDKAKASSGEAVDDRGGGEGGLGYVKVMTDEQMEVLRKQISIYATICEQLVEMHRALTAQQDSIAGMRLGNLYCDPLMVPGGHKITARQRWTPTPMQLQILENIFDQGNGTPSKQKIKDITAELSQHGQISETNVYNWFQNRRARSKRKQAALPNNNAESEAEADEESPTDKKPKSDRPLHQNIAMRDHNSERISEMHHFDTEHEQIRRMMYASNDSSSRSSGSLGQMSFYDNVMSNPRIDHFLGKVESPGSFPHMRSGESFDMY
- test: protein-binding microarray (RPBM); PBS, 2% BSA, 51.3 ng/ul salmon testes DNA, 50 uM zinc acetate, 200 nM TF, 25 C, 1 h; high values mean tight binding
- experimental_conditions: protein: recombinant; tags: N-terminal polyhistidine and DsRed monomer fusion (pET32a); label: CyDye5-dUTP incorporated in the synthesized complementary strand; 3' TTTTT single-stranded linker to array surface; dsDNA, one strand shown
In all, about 35,000 sequences were measured (“fluorescence intensity (a.u.)”: median about 10,000, highest 2% from about 52,000 on). This is one part of a sample in which the highest values are shown more often than they occur.
For each entry below, report its binding signal value.

[ask] Fill in: binding signal of `ATAAATTAGCACCCACCTCTGCCTTCCTACCTTCCCCTCCCGGAGTCACCTAGTGCAG` is ___
[reply] 24900 fluorescence intensity (a.u.)

[ask] Which binding signal is reported for this sequence? `ATGATTGACAAGATGAATCAGCACGCTGTTGGAAAAGGGACGGAGTCACCTAGTGCAG`
[reply] 55400 fluorescence intensity (a.u.)

[ask] Quick one: binding signal of `ATGTCATTTTAAAGTTTAATTAATTAGATAATTACCTTCTCGGAGTCACCTAGTGCAG` ?
[reply] 17500 fluorescence intensity (a.u.)

[ask] GET /values?readout=binding signal&item= `TGCATGAATTGATCAACAAGACAAAAGTTACAAAACATGTCGGAGTCACCTAGTGCAG`
[reply] 4160 fluorescence intensity (a.u.)

[ask] GET /values?readout=binding signal&item= `ATAATAATTAGTCATAAAGACAAGTGCTTATGCCCACTTACGGAGTCACCTAGTGCAG`
[reply] 16700 fluorescence intensity (a.u.)

Each sequence below has a recorded value; state its binding signal.
1. TTAAAATAATTGACAAGATAGATTAATATTTGGTATATCACGGAGTCACCTAGTGCAG
2. AACACAGGCTGATGAATGATGATTGAATGAACAGAGACAACGGAGTCACCTAGTGCAG
3. TTTGATTTGATTTGATTTGATTGAATTAATTTGAGTCCGACGGAGTCACCTAGTGCAG

[reply]
26400 fluorescence intensity (a.u.)
22900 fluorescence intensity (a.u.)
65400 fluorescence intensity (a.u.)

* * *

- target_under_test: OsWOX13 (Oryza sativa, UniProt Q5QMM3 1-267)
- Sequence: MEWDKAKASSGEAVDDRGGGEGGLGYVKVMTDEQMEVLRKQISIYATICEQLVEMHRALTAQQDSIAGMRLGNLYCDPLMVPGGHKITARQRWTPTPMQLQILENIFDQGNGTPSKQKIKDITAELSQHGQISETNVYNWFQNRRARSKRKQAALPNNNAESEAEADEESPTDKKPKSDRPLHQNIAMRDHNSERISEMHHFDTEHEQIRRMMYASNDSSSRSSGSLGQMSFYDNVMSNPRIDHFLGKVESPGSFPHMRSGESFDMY
- test: protein-binding microarray (RPBM); PBS, 2% BSA, 51.3 ng/ul salmon testes DNA, 50 uM zinc acetate, 200 nM TF, 25 C, 1 h; high values mean tight binding
- experimental_conditions: protein: recombinant; tags: N-terminal polyhistidine and DsRed monomer fusion (pET32a); label: CyDye5-dUTP incorporated in the synthesized complementary strand; 3' TTTTT single-stranded linker to array surface; dsDNA, one strand shown
Whole data set: some 35,000 sequences, median “fluorescence intensity (a.u.)” near 10,000, cut for the highest 2% near 52,000. The sample as a whole holds a higher share of the highest values than the screen did.
Record form. Attribute: binding signal. Fill in for each entry.

[ask] Look up binding signal: `CATCGAACATCATGAATTTGATTGGCTTCTACTTTCACGACGGAGTCACCTAGTGCAG`
[reply] 17100 fluorescence intensity (a.u.)

Give binding signal for all sequences that follow.
1. AAGAAGAATCTATCTATCTATCTATCTATCAATCTCTATACGGAGTCACCTAGTGCAG
2. ATTAGGTGTTTCCAGTTAATTAAAGTCATGTAGTACGGATCGGAGTCACCTAGTGCAG
3. TTAACAGATTCTTCTTAATTAATAAATAAGCTGTCATGATCGGAGTCACCTAGTGCAG
4. CAAAACAGACATAATCTTGTTGGACAGACGTAGCCATGAACGGAGTCACCTAGTGCAG
5. GGCTATTTCGTCCCAATTACCAATGGGCTAATTTTGGATCCGGAGTCACCTAGTGCAG
6. ATAATGGGAAATGGAGGGTGGGATTGGGATTAGAAAATGACGGAGTCACCTAGTGCAG
7. AATATATTGACATTGATATCTTATAAAGAGCCTATAGATACGGAGTCACCTAGTGCAG
8. ATAAATTACTTTTCGTTTGCAAATATGCTGTTTGAATAAGCGGAGTCACCTAGTGCAG

[reply]
1. 3320 fluorescence intensity (a.u.)
2. 3680 fluorescence intensity (a.u.)
3. 17300 fluorescence intensity (a.u.)
4. 12500 fluorescence intensity (a.u.)
5. 5000 fluorescence intensity (a.u.)
6. 3290 fluorescence intensity (a.u.)
7. 5820 fluorescence intensity (a.u.)
8. 13300 fluorescence intensity (a.u.)
